Origin of the recorded values: patent US20130266574A1

# system.name: T1, amino acid residues 26-148 of human ANGPTL4 fused in-line to mouse IgG2a (hANGPTL4-mFc) (human)
# T1 construct: contains the N-terminal coiled-coil region
# T1 chain: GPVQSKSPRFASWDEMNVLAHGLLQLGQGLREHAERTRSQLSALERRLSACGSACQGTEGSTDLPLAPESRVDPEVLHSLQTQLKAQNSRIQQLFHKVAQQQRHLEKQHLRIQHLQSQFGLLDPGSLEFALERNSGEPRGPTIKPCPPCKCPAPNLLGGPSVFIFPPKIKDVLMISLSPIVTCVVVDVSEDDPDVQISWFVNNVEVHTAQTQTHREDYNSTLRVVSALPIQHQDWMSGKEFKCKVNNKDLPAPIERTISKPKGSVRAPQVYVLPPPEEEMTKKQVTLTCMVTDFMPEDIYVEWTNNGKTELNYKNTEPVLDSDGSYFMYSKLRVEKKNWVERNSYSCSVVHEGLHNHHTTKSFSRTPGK
# procedure.text: SPR (Biacore T100), hANGPTL4-mFc captured by anti-mouse IgG, antibody injected, 37° C.
pKd values by entry
Just the number, please; pKd means minus log10 of the concentration in mol/L.

Check out these entries, answers already filled in.
H1H624P (antibody, V domains shown, Fully human antibody, H1H prefix (human IgG1)) VH: EVQLVESGGGLVQPGGSLRLSCAASEFIFSSYAMNWVRQAPGKGLEWVSVISGSGDSKYYADSVKGRFTISRDNSKNTLYLQMNSLRVEDTAVYYCAKDGKDRYGFYYNFYGMDVWGQGTTVTVS VL: DIQMTQSPSFLSASVGDRVTITCWASQGISSYLAWYQQKPGKAPKILIYAASTLQSGVPSRFSASGSGTEFTLTISSLQPEDFATYHCQQLNSYPFTFGPGTKVDIK: 8.43
H1H644P (antibody, V domains shown, Fully human antibody, H1H prefix (human IgG1)) VH: EVQLVESGGGLVQPGGSLRLSCAASGFTFSSYDMHWVRQVAGKGLEWVSAIGTAGDTYYPVSVKGRFTISRENAKNSLYLHMNSLRAGDTAVYYCARGDSRNYYVGDYFDYWGQGTLVTVSS VL: DIQMTQSPSTLSASVGDRVTITCRASQSISRWLAWYQQKPGKAPKVLIYKASNLESGVPSRFSGSGSGTEFTLTISSLQPDDFATYYCQQYNTYSRTFGQGTKVEIK: 8.52
H1H295P (antibody, V domains shown, Fully human antibody, H1H prefix (human IgG1)) VH: EVQLVESGGGLVQPGGSLRLSCAASGFTFSTYDMHWVRQAPGKGLEWVSAIGSAGDTYYPGSVKGRFTISRDNAKSSLFLQMNSLRAGDTALYYCARGDSRNYFVGDYFDYWGQGTLVTVSS VL: DIQMTQSPSTLSASVGDRVTITCRASQSIGTWLAWYQQKPGKAPKILIYKASSLEGGVPSRFSGSGSGTEFTLTISSLQPDDFANYYCQQYNSFYRTFGQGTKVEIK: 8.58
H1H284P (antibody, V domains shown, also called entire H1H284 mAb; Full mAb) VH: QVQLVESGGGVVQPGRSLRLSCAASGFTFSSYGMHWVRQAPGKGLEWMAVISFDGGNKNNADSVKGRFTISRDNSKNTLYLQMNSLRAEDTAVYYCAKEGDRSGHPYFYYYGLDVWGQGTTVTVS VL: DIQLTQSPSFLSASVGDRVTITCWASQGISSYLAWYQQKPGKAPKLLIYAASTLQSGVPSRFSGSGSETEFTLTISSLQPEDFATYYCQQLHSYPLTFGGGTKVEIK: 9.46

Need pKd of H1H638P (antibody, V domains shown, Fully human antibody, H1H prefix (human IgG1)) VH: EVQLVESGGGLVQPGGSLRLSCVASGFTFSSYDMHWVRQVAGKGLEWVAAIGTAGDTYYPVSVKGRFTISRENAKNSLSLHMNSLRAGDTAVYYCARGDSRNYYVGDYFDYWGQGTLVTVSS VL: DIQMTQSPSTLSASVGDRVTITCRASQSISRWLAWYQQKPGKAPKVLIYKASSLKSGVPSRFSGSGSGTEFTLTISSLQSDDFATYYCQQYNSYSRTFGQGTKVEIK , thanks.
9.52

Tell me the measured pKd of H1H291P (antibody, V domains shown, Fully human antibody, H1H prefix (human IgG1)) VH: EVQLVESGGGLVQPGGSLRLSCAASGFTFSTYDMHWVRQGLGKGLEWVSAIGSAGDTYYPGSVKGRFTISRDNAKSSLFLHMNSLRAGDTALYYCARGDSRNYFVGDYFDYWGQGTLVTVSS VL: DIQMTQSPSTLSASIGDRVTITCRASQSISSWLAWYQQKPGKAPKVLIYKASSLEAGVPSRFSGSGSGTEFTLTISSLQPDDFASYYCQQYSSYSRTFGQGTKVEIK , please.
9.75

Fill in the blank: the reported pKd of H1H285P (antibody, V domains shown, Fully human antibody, H1H prefix (human IgG1)) VH: EVQLVESGGGLVQPGGSLRLSCAASGFTFSRYDMHWVRQVTGKGLEWVSGIGTAGDTYYPGSVKGRFTISRENDKNSLYLQMNSLRVGDTAVYYCARGDSKNYYVGDYFDYWGQGTLVTVSS VL: DIQMTQSPSTLSASVGDRVTFTCRASHSIGNWLAWYQQKPGKAPKVLIYEASSLEDGVPSRFSGSGSGTEFTLTISSLQPDDFATYYCQQYDTYFRTFGQGTKVEIK is ____.
9.71

Form field: reported pKd of H1H292P (antibody, V domains shown, Fully human antibody, H1H prefix (human IgG1)) VH: EVQLVESGGGLVQPGGSLRLSCVASGFTFSSYDMHWVRQLPGKGLEWVSAIGVAGDTYYPASVKGRFTISRENAKNSLYLQMNSLRAGDTAVYYCARGDSGNYYDGDYFDFWGQGTLVTVSS VL: DIQMTQSPSTLSASVGDRVTITCRASQSINRWLAWYQQKPGKAPKVLIYKASNLESGVPSRFSGSGSGTEFTLTISSLQPDDFATYYCQQYDSYFRTFGQGTKVEIK
9.78

pKd for H1H268P (antibody, V domains shown, also called entire H1H268 mAb; Full mAb) VH: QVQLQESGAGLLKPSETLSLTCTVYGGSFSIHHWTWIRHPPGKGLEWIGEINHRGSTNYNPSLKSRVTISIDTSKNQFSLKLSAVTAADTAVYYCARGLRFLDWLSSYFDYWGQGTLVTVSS VL: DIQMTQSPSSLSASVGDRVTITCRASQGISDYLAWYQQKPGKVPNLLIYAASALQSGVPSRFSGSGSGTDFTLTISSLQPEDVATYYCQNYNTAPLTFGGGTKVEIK ?
9.41

Sample H1H283P (antibody, V domains shown, Fully human antibody, H1H prefix (human IgG1)) VH: EVQLVESGGGLVQPGGSLRLSCAASGFTFSSYDMHWVRQVAGKGLEWVSAIGTAGDTYYPVSVKGRFTISRENAKNSLYLHMNSLRAGDTAVYFCARGDSRNYYVGDYFDYWGQGTLVTVSS VL: DIQMTQSPSTLSASVGDRVTITCRASQSISRWLAWYQQKPGKAPKVLIYKASNLESGVPSRFSGSGSGTEFTLTISSLQPDDFATYYCQQYNSYSRTFGQGTKVEIK — what was its pKd?
8.87
